EC50 values, listed per item
- Test system: AGS gastric carcinoma cells [heterozygous G12D]
- method.description: Cancer cell line proliferation (CellTiter-Glo), AGS
- Assay type: cell-based
- experimental.context: Homo sapiens, 72 hr treatment, read-out: AGS CTG (EC50)

{"compound": "CCNC(=O)c1nnc(-c2cc(C(C)C)c(O)cc2O)n1-c1ccc(CN2CCN(C[C@H]3CC[C@@H](COc4nc(N5CC6CCC(C5)N6)c5cnc(-c6cccc7ccccc67)c(F)c5n4)N3C)CC2)cc1", "system.under.test": "AGS gastric carcinoma cells [heterozygous G12D]", "measurement.type": "EC50", "result": "< 100 nM"}
{"compound": "C#Cc1cccc2cc(O)cc(-c3ncc4c(N5CC6CCC(C5)N6)nc(OCC5(CN6CCN(CC7CCN(Cc8ccc(-n9c(C(=O)NCC)nnc9-c9cc(C(C)C)c(OC)cc9OC)cc8)CC7)CC6)CC5)nc4c3F)c12", "system.under.test": "AGS gastric carcinoma cells [heterozygous G12D]", "measurement.type": "EC50", "result": "100 to 1000 nM"}
{"compound": "C#Cc1cccc2cc(O)cc(-c3ncc4c(N5CC6CCC(C5)N6)nc(OCC5(CN6CCC(C(=O)N7CCN(Cc8ccc(-n9c(C(=O)NCC(F)(F)F)nnc9-c9cc(C(C)C)c(O)cc9O)cc8)CC7)CC6)CC5)nc4c3F)c12", "system.under.test": "AGS gastric carcinoma cells [heterozygous G12D]", "measurement.type": "EC50", "result": "< 100 nM"}
{"compound": "CCc1cc(-c2nnc(C(=O)NCC(F)(F)F)n2-c2ccc(CN3CCN(C[C@H]4CC[C@@H](COc5nc(N6CC7CCC(C6)N7)c6cnc(-c7cc(C)cc8ccccc78)c(F)c6n5)N4C)CC3)cc2)c(O)cc1O", "system.under.test": "AGS gastric carcinoma cells [heterozygous G12D]", "measurement.type": "EC50", "result": "100 to 1000 nM"}
{"compound": "CCNC(=O)c1nnc(-c2cc(C(C)C)c(O)cc2O)n1-c1ccc(CN2CCN([C@H]3C[C@@H](COc4nc(N5CC6CCC(C5)N6)c5cnc(-c6cccc(F)c6C)c(F)c5n4)N(C)C3)CC2)cc1", "system.under.test": "AGS gastric carcinoma cells [heterozygous G12D]", "measurement.type": "EC50", "result": "< 100 nM"}

Proceeding to the next compound to report its EC50.
So for C#Cc1c(F)ccc2cc(O)cc(-c3ncc4c(N5CC6CCC(C5)N6)nc(OCC5(CN6CCN(CC7CCN(Cc8ccc(-n9c(C(=O)NC(C)C(F)(F)F)nnc9-c9cc(C(C)C)c(O)cc9O)cc8)CC7)CC6)CC5)nc4c3F)c12 (stereo not drawn) , the logged EC50 turned out to be < 100 nM
